Catalogue of pIC50 readings, one per entry.
System: Chinese hamster fibroblast NR− line (T78-1), V79/4 transfected with an empty shuttle vector
Assay: Cytotoxicity, 18 h drug exposure, V79 NR− line (T78-1)
Format: cell-based
Conditions: Cricetulus griseus; T78-1 cells, 18 h drug exposure; read-out: V-79 NR− IC50
Scale: pIC50 equals -log10([C]), with [C] in mol/L.

Examples from the recorded data:
CS(=O)(=O)c1cc([N+](=O)[O-])c(N2CC2)cc1C(=O)NCC(O)CO (stereo not shown) [Compound 10] :: 3.19
O=C(NCCn1ccnc1)c1cc(N2CC2)c([N+](=O)[O-])cc1[N+](=O)[O-] [Compound 7] :: 3.38
CS(=O)(=O)c1cc([N+](=O)[O-])c(C(N)=O)cc1N1CC1 [Compound 12] :: 3.38

Req: Record request: pIC50 value, item NC(=O)c1cc([N+](=O)[O-])cc([N+](=O)[O-])c1N1CC1 [Compound 14, 2-(aziridin-1-yl)-3,5-dinitrobenzamide]
Resp: 2.97

Req: // pIC50 lookup, key: O=C(NCC(O)CO)c1cc(N2CC2)c([N+](=O)[O-])cc1[N+](=O)[O-] (stereo not shown) [Compound 2]
Resp: 3.68

Req: So what's the measured pIC50 for this one? O=C(NCC(O)CO)c1cc([N+](=O)[O-])cc([N+](=O)[O-])c1N1CC1 (stereo not shown) [Compound 17]
Resp: 2.84

Req: Please look up its pIC50: NC(=O)c1c([N+](=O)[O-])ccc(N2CC2)c1[N+](=O)[O-] [Compound 13, 3-(aziridin-1-yl)-2,6-dinitrobenzamide]
Resp: 3.36
